assay: Drug metabolism in New Zealand White rabbit liver S9 fraction assessed per mg/ml of protein at 2 mM after 24 hrs by LC-MS/MS analysis in presence of 25 mM UDPGA; type: ADME, subcellular, Oryctolagus cuniculus; conditions: read-out: Drug metabolism
endpoint: metabolised at 24 h, 2000 µM (%)
Number in %, nothing else.

Value of measured metabolised at 24 h, 2000 µM for the entry "COc1cc(OC)c2c(=O)[nH]c(-c3cc(C)c(OCCO)c(C)c3)nc2c1" : 16.7

----------
assay: Drug metabolism in New Zealand White rabbit liver S9 fraction assessed per 4 mg/ml of protein at 0.5 mM after 24 hrs by LC-MS/MS analysis in presence of 5 mM UDPGA; format: ADME, subcellular, Oryctolagus cuniculus; conditions: read-out: Drug metabolism
endpoint: metabolised at 24 h, 500 µM (%)
Express your answer in %, writing the number without its unit.

For record "COc1cc(OC)c2c(=O)[nH]c(-c3cc(C)c(OCCO)c(C)c3)nc2c1" the listed metabolised at 24 h, 500 µM is 33

----------
experiment: Drug metabolism in New Zealand White rabbit liver S9 fraction assessed per 4 mg/ml of protein at 0.5 mM after 24 hrs by LC-MS/MS analysis in presence of 25 mM UDPGA; type: ADME, subcellular, Oryctolagus cuniculus; conditions: read-out: Drug metabolism
endpoint: metabolised at 24 h, 500 µM (%)
Give just the numeric value; % need not be written.

// "COc1cc(OC)c2c(=O)[nH]c(-c3cc(C)c(OCCO)c(C)c3)nc2c1" : metabolised at 24 h, 500 µM value = 41.3

----------
test: Drug metabolism in New Zealand White rabbit liver microsomes assessed per mg/ml of protein at 0.5 mM after 24 hrs by LC-MS/MS analysis in presence of 25 mM UDPGA; type: ADME, Oryctolagus cuniculus, Microsome; settings: read-out: Drug metabolism
endpoint: metabolised at 24 h, 500 µM (%)
# unit: % | format: bare number

Noted for COc1cc(OC)c2c(=O)[nH]c(-c3cc(C)c(OCCO)c(C)c3)nc2c1 [APABETALONE] : its metabolised at 24 h, 500 µM reads 49.4

----------
test: Drug metabolism in New Zealand White rabbit liver S9 fraction assessed per mg/ml of protein at 0.5 mM after 24 hrs by LC-MS/MS analysis in presence of 25 mM UDPGA; assay type: ADME, subcellular, Oryctolagus cuniculus; conditions: read-out: Drug metabolism
endpoint: metabolised at 24 h, 500 µM

Measured metabolised at 24 h, 500 µM of "COc1cc(OC)c2c(=O)[nH]c(-c3cc(C)c(OCCO)c(C)c3)nc2c1" : 25.7%

----------
experiment: Drug metabolism in New Zealand White rabbit liver microsomes assessed per 4 mg/ml of protein at 2 mM after 24 hrs by LC-MS/MS analysis in presence of 25 mM UDPGA; type: ADME, Oryctolagus cuniculus, Microsome; conditions: read-out: Drug metabolism
endpoint: metabolised at 24 h, 2000 µM
Answer format: number, then unit.

Recorded result, COc1cc(OC)c2c(=O)[nH]c(-c3cc(C)c(OCCO)c(C)c3)nc2c1 [APABETALONE] , metabolised at 24 h, 2000 µM: 48.9%

----------
assay: Drug metabolism in New Zealand White rabbit liver S9 fraction assessed per 20 mg of protein at 1 mM after 24 hrs by LC/MS analysis in presence of UDPGA; type: ADME, subcellular, Oryctolagus cuniculus; settings: read-out: Drug metabolism
endpoint: metabolised at 24 h, 1000 µM (%)
State the answer as a number, implicitly in %.

// COc1cc(OC)c2c(=O)[nH]c(-c3cc(C)c(OCCO)c(C)c3)nc2c1 [APABETALONE] : metabolised at 24 h, 1000 µM value = 22
